- System: Protein-tyrosine kinase 2-beta (Homo sapiens)
- Test Conditions: at 0.1 µM
Kindly supply the reported inhibition values for the records listed here.
Entry rule: numbers only, all in %.

Task item: What value of inhibition on Protein-tyrosine kinase 2-beta (Homo sapiens) does CN(C)C(=O)O[C@H]1CN[C@H](C#Cc2cc3ncnc(Nc4ccc(OCc5cccc(F)c5)c(Cl)c4)c3s2)C1 have?
Reply: 6.18

Task item: State its inhibition on Protein-tyrosine kinase 2-beta (Homo sapiens): Oc1cccc(-c2nc(-c3ccccc3)[nH]c2-c2ccncc2)c1
Reply: 7.31

Task item: Test system Protein-tyrosine kinase 2-beta (Homo sapiens); read-out inhibition; what value for Cc1cc(O)cc(C)c1/C=C/c1cncc(C(=O)N(C)C)c1 ?;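 further: reported as mean percent inhibition of PYK2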
Reply: 5.04

Task item: Recorded inhibition for CN(C)c1cc2c(Nc3ccc4c(cnn4Cc4ccccc4)c3)ncnc2cn1 with Protein-tyrosine kinase 2-beta (Homo sapiens), please?
Reply: 4.48
